Listed here are molecules together with their documented Cmax.
# assay comment: Prodrug conversion in heart of C57BL/6 mouse xenografted mouse MC38 cells assessed as BMS-986260 Cmax at 8 mg/kg,iv and measured after 72 hrs by LC-MS/MS analysis
# Format: ADME, organism-based, MC-38
# Design: dose 8 mg/kg, time 72 hrs, route iv
# conditions used: in vivo
Numbered stars: 1 amine (or outer) side, 2 acyl side, 3 side chain; on linkers, the order of the positions; unused ones are H or OH. Square brackets hold non-standard residues; d marks the D form. Peptide text beside a SMILES is read from it. * marks the point of attachment. X1 = N#Cc1cnc2ccc(-c3c(-c4ccc(F)c(Cl)c4)ncn3CCOCN*)nn12; C18 diacid = O=C(O)CCCCCCCCCCCCCCCCC(=O)*; γGlu = O=C(O)[C@H](CCC(=O)[*:2])N[*:1]; PABC = O=C(OCc1ccc(N[*:1])cc1)[*:2]; AEEA = NCCOCCOCC(=O)O

{"molecule": "CC(C)C[C@H](NC(=O)COCCOCCNC(=O)COCCOCCNC(=O)CC[C@H](NC(=O)CC[C@H](NC(=O)CC[C@H](NC(=O)CCCCCCCCCCCCCCCCC(=O)O)C(=O)O)C(=O)O)C(=O)O)C(=O)N[C@@H](CO)C(=O)NCC(=O)N[C@@H](CCCCN)C(=O)Nc1ccc(COC(=O)NCOCCn2cnc(-c3ccc(F)c(Cl)c3)c2-c2ccc3ncc(C#N)n3n2)cc1 ({C18 diacid-γGlu-γGlu-γGlu-AEEA-AEEA}-LSGK[PABC]-X1)", "Cmax [nM]": 270}
{"molecule": "CC(C)C[C@H](NC(=O)COCCOCCNC(=O)COCCOCCNC(=O)CC[C@H](NC(=O)CC[C@H](NC(=O)CCCCCCCCCCCCCCCCC(=O)O)C(=O)O)C(=O)O)C(=O)N[C@@H](CO)C(=O)NCC(=O)N[C@@H](CCCCN)C(=O)Nc1ccc(COC(=O)NCOCCn2cnc(-c3ccc(F)c(Cl)c3)c2-c2ccc3ncc(C#N)n3n2)cc1 ({C18 diacid-γGlu-γGlu-AEEA-AEEA}-LSGK[PABC]-X1)", "Cmax [nM]": 200}
